The reported measurements were obtained from paper PMC11897524.

target: EPHA2 (Homo sapiens, UniProt P29317)
Sequence (P29317 24-976): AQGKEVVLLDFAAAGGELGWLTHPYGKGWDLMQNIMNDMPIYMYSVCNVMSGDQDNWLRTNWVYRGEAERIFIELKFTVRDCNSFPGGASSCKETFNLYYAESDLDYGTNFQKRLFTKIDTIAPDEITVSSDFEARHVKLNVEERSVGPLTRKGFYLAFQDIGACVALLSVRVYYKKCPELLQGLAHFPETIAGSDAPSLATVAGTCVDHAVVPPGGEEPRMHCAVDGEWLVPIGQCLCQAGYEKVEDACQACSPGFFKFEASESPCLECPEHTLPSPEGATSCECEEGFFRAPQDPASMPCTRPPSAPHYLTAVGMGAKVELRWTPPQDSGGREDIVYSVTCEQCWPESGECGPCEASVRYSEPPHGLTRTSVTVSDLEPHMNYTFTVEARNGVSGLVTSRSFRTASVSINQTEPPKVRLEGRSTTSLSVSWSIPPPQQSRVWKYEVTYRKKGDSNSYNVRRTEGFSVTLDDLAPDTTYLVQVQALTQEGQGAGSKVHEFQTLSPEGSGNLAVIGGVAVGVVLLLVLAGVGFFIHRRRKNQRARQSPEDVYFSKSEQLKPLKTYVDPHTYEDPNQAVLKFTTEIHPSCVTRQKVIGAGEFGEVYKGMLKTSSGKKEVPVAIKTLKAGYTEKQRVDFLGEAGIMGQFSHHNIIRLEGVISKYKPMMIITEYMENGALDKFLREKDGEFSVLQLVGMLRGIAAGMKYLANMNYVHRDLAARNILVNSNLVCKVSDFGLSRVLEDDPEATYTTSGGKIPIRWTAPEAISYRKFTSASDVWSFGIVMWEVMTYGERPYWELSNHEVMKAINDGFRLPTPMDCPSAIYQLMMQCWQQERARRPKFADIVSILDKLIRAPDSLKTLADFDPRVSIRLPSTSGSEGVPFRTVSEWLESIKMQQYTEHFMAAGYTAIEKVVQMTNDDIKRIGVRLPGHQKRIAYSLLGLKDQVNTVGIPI
pIC50: −log10 of the molar value.
Recorded Endpoint: pIC50

Noted pIC50 for CCS(=O)(=O)Cc1cnc(Oc2c(F)cc(F)cc2OCCCCOc2ccc(/C=C/c3cc(OC)cc(OC)c3)cc2)c(-c2cc(C)c3c(=O)[nH]ccn23)c1 [BST-4] , tested on EPHA2 (Homo sapiens, UniProt P29317): < 5.00

====

target: EPHA7 (Homo sapiens)
Sequence (Q15375 28-998): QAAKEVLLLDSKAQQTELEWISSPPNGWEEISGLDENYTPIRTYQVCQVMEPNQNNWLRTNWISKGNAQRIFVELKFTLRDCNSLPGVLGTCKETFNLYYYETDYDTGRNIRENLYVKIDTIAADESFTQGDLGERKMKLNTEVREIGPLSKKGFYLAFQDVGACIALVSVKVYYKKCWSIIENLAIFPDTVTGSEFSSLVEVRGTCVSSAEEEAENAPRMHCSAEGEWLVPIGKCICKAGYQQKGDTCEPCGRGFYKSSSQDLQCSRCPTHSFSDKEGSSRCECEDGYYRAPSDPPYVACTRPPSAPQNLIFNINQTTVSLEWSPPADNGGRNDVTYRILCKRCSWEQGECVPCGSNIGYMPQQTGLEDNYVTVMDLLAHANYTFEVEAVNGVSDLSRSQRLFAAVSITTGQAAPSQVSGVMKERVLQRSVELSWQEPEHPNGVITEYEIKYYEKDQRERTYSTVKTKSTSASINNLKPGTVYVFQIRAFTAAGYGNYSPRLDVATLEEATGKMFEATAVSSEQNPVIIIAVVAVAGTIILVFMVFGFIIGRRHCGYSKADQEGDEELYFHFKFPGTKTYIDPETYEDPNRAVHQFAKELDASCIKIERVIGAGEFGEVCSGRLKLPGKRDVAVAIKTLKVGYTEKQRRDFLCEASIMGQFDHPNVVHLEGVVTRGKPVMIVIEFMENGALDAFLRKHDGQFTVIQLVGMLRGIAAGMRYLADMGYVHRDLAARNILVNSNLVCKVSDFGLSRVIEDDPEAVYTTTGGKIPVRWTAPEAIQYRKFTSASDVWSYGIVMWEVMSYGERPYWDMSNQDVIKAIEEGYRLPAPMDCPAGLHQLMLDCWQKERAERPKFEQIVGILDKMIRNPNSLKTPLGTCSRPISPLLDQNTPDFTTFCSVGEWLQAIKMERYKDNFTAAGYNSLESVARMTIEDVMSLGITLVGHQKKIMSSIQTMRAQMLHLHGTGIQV
Recorded Endpoint: IC50

Noted IC50 for `CCS(=O)(=O)Cc1cnc(Oc2c(F)cc(F)cc2OCCCCOc2ccc(/C=C/c3cc(OC)cc(OC)c3)cc2)c(-c2cc(C)c3c(=O)[nH]ccn23)c1` , tested on EPHA7 (Homo sapiens): > 10 µM
